- testProtocol: Half life in mouse plasma at 30 mg/kg, po QD
- Format: ADME, organism-based
- Design: dose 30 mg/kg, route oral
measure: half-life
Could you kindly put the unit after your number?

stdin: # query: half-life of entry CCCCCCCCCCCCC[C@H](O)C[C@H](O)[C@H](C)N
stdout: 642 min

====

- testProtocol: AUC (0 to infinity) in mouse RBC at 30 mg/kg, po QD
- Format: ADME, organism-based, Erythrocyte
- Set-up: time infinity, dose 30 mg/kg, route oral
- particulars: red blood cells (RBC)
measure: AUC(0-inf) (µM·h)
Note: unit µM·h is implicit; provide only the numeric part.

stdin: // returns reported AUC(0-inf) for input CCCCCCCCCCCCC[C@H](O)C[C@H](O)[C@H](C)N [ENIGMOL]
stdout: 50.7

Values from ChEMBL document CHEMBL2034950
